# Target Under Test: T1, hNPR1-mFc:hBNP complex (human, UniProt P16860 103-134)
# T1 construct: also called human NPR1 complexed to BNP
# Experimental Protocol: SPR, mAb captured, 25C
Quick reference: Kd of the listed items.
Enter your answer as a number in nM; do not include the unit.

Binder | Kd, nM
mAb22805 (antibody, human IgG4, V domains shown) VH: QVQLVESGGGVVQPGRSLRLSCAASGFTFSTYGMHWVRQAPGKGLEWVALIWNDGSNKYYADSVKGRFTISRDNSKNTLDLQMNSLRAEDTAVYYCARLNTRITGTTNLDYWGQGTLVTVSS VL: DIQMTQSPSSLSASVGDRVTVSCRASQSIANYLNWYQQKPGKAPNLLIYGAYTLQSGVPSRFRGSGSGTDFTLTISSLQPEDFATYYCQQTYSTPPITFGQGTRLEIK | 3.68
mAb25479 (antibody, human IgG4, V domains shown) VH: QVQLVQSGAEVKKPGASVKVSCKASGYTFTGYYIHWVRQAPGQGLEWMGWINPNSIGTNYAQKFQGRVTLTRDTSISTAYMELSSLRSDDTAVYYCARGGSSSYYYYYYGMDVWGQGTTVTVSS VL: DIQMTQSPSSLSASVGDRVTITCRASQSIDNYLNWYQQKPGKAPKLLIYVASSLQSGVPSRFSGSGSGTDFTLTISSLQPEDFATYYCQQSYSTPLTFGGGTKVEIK | 4.21
mAb25508 (antibody, human IgG4, V domains shown) VH: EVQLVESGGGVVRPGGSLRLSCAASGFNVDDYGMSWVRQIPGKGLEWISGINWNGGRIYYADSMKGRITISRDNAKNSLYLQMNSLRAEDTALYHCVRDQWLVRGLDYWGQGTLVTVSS VL: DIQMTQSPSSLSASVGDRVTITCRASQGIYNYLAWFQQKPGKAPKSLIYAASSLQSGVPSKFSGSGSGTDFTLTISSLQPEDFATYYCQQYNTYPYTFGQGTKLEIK | 0.343

QUERY: Look at this binder and give its reported Kd. mAb25497 (antibody, human IgG4, V domains shown) VH: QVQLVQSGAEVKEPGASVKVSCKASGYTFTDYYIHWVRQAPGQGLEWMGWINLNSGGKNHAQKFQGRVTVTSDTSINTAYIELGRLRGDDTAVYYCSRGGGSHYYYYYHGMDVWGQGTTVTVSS VL: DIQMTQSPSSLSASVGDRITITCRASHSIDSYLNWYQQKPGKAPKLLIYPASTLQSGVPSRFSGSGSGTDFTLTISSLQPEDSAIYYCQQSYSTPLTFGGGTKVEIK
RESULT: 0.358
